Test system: Staphylococcus aureus
Settings: Concentration 32 ug.mL-1;; ASSAY_TEST Inhibition of Bacterial Growth; detection method Absorption (OD600); MEDIA CAMHB; plate type 384well; NBS; CORNING #3640; time 18 hr
Description: Antibacterial activity against Staphylococcus aureus MRSA ATCC 43300 (CO-ADD:GP_020); MIC in CAMBH media, using NBS plates, by OD(600)
Measured potencies and affinities stand elsewhere.

# COMPOUND, ASSAYED SYSTEM, Inhibition
rows = [
    ("Cc1cc(C)cc(NC(=O)Cn2nc3ccc(SC(C)(C)C)nn3c2=O)c1", "Staphylococcus aureus", "9.02%"),
    ("Cc1ccc(C)c(CSc2nnc3c(=O)n(-c4ccc(F)c(F)c4)ccn23)c1", "Staphylococcus aureus", "21.94%"),
    ("CSc1cccc(NC(=O)Cn2nc3ccc(-c4ccccc4)nn3c2=O)c1", "Staphylococcus aureus", "-12.73%"),
    ("CCOc1cccc(CNC(=O)CCc2nnc3ccc(-c4ccc(C)cc4)nn23)c1", "Staphylococcus aureus", "-1.51%"),
    ("Cc1cccc(N(Cc2ccccc2)S(=O)(=O)c2cccn3c(C)nnc23)c1", "Staphylococcus aureus", "19.49%"),
    ("Cc1ccc(Sc2nccn3c(=O)n(CC(=O)Nc4ccc(Br)cc4)nc23)c(C)c1", "Staphylococcus aureus", "-1.98%"),
    ("O=C(Cn1nc2c(N3CCOCC3)nccn2c1=O)NCc1ccc(Cl)cc1", "Staphylococcus aureus", "9.06%"),
    ("Cc1ccc(-n2ccn3c(SC(C)C(=O)Nc4ccc5c(c4)OCCO5)nnc3c2=O)cc1C (stereo unspecified)", "Staphylococcus aureus", "12.06%"),
    ("COc1cc(NC(=O)Cn2nc3c(Oc4ccccc4)nccn3c2=O)cc(OC)c1", "Staphylococcus aureus", "11.4%"),
    ("O=C(Cn1nc2c(N3CCOCC3)nc3ccccc3n2c1=O)Nc1ccccc1Br", "Staphylococcus aureus", "3.23%"),
    ("O=C(CSc1nnc2c(=O)n(-c3ccccc3)ccn12)Nc1ccc(F)cc1F", "Staphylococcus aureus", "-3.92%"),
]
